Source of measurements: patent US20210246166A1

Biological target: T1, recombinant human MASP1 active protease (amino acids 297-699, C-terminal His Tag) (human, UniProt P48740 297-699)
T1 sequence: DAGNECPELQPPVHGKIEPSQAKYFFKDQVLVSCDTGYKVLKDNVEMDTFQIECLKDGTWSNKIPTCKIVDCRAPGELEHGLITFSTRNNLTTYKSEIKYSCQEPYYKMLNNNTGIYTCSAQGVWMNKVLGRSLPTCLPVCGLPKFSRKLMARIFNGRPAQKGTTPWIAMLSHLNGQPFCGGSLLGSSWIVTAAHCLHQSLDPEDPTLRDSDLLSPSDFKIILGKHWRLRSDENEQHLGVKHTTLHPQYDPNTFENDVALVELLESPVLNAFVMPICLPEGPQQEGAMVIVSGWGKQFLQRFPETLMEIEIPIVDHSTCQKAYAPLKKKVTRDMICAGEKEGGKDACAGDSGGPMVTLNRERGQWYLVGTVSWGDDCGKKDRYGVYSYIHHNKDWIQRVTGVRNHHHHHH
Assay: cell-based or functional assay
Bridge positions count the residues as written; N and C are the ends. Square brackets hold non-standard residues; d marks the D form. Ends that are not written are not given here. Pro(cis-4-F) = O=C(O)[C@@H]1C[C@H](F)CN1; tBuAla = CC(C)(C)C[C@H](N)C(=O)O; Pen = CC(C)(S)[C@H](N)C(=O)O; Phg = N[C@H](C(=O)O)c1ccccc1; Orn = NCCC[C@H](N)C(=O)O; Sar = CNCC(=O)O
observable: human MASP1 IC50 (nM)
Give just the number in nM; leave the unit off.

What measured human MASP1 IC50 goes with [Sar]ICSRSLPPICIPE-OH (disulfide 3-11; N-terminus assumed; SMILES CC[C@H](C)[C@H](NC(=O)CNC)C(=O)N[C@H]1CSSC[C@@H](C(=O)N[C@H](C(=O)N2CCC[C@H]2C(=O)N[C@@H](CCC(=O)O)C(=O)O)[C@@H](C)CC)NC(=O)[C@H]([C@@H](C)CC)NC(=O)[C@@H]2CCCN2C(=O)[C@@H]2CCCN2C(=O)[C@H](CC(C)C)NC(=O)[C@H](CO)NC(=O)[C@H](CCCNC(=N)N)NC(=O)[C@H](CO)NC1=O) [Example 339: ((N-Me)G)-IC+SRSLPPIC+IPE-OH] ? 26

What measured human MASP1 IC50 goes with GICSRSLP[Pro(cis-4-F)]ICIPD-OH (disulfide 3-11; N-terminus assumed; SMILES CC[C@H](C)[C@H](NC(=O)CN)C(=O)N[C@H]1CSSC[C@@H](C(=O)N[C@H](C(=O)N2CCC[C@H]2C(=O)N[C@@H](CC(=O)O)C(=O)O)[C@@H](C)CC)NC(=O)[C@H]([C@@H](C)CC)NC(=O)[C@@H]2C[C@H](F)CN2C(=O)[C@@H]2CCCN2C(=O)[C@H](CC(C)C)NC(=O)[C@H](CO)NC(=O)[C@H](CCCNC(=N)N)NC(=O)[C@H](CO)NC1=O) [Example 414: GIC+SRSLP-((cis-Fluoro)P)-IC+IPD-OH] ? 86

What measured human MASP1 IC50 goes with [Sar]ICSRSLPPIC[Phg]PD-OH (disulfide 3-11; N-terminus assumed; SMILES CC[C@H](C)[C@H](NC(=O)CNC)C(=O)N[C@H]1CSSC[C@@H](C(=O)N[C@H](C(=O)N2CCC[C@H]2C(=O)N[C@@H](CC(=O)O)C(=O)O)c2ccccc2)NC(=O)[C@H]([C@@H](C)CC)NC(=O)[C@@H]2CCCN2C(=O)[C@@H]2CCCN2C(=O)[C@H](CC(C)C)NC(=O)[C@H](CO)NC(=O)[C@H](CCCNC(=N)N)NC(=O)[C@H](CO)NC1=O) [Example 325: ((N-Me)G)-IC+SRSLPPIC+(Phg)-PD-OH] ? 23

What measured human MASP1 IC50 goes with [Sar][Orn][Orn][Orn]ICSRS[tBuAla]PPI[Pen]IP-NH2 (disulfide 6-14; N-terminus assumed; SMILES CC[C@H](C)[C@H](NC(=O)[C@H](CCCN)NC(=O)[C@H](CCCN)NC(=O)[C@H](CCCN)NC(=O)CNC)C(=O)N[C@H]1CSSC(C)(C)[C@@H](C(=O)N[C@H](C(=O)N2CCC[C@H]2C(N)=O)[C@@H](C)CC)NC(=O)[C@H]([C@@H](C)CC)NC(=O)[C@@H]2CCCN2C(=O)[C@@H]2CCCN2C(=O)[C@H](CC(C)(C)C)NC(=O)[C@H](CO)NC(=O)[C@H](CCCNC(=N)N)NC(=O)[C@H](CO)NC1=O) [Example 381: ((N-Me)G)-(Orn)-(Orn)-(Orn)-IC+SRS-((tBu)A)-PPI-(Pen)+IP-NH2] ? 40
